Biological target: DCLK1 (Homo sapiens)
Construct: purchased Eurofins (Belgium), contract assay service
Test: In vitro DCLK1 kinase activity assay (Eurofins)
Type: biochemical
Conditions: read-out: IC50 of DCLK1
Source text: Eurofins (Belgium) conducted in vitro DCLK1 and LRRK2 kinase activity assays. Compounds were sent as dry powders to Eurofins.
pIC50: −log10 of the molar value.
Use Yes when the recorded pIC50 is no lower than 7; use No when it is lower.

Is it the case that COc1cc(N2CCC(F)(F)CC2)ccc1Nc1ncc2c(n1)N(C)c1ccccc1C(=O)N2C has pIC50 reaching or exceeding 7?
Yes

Is it the case that COc1cc(NC(=O)CC(=O)O)ccc1Nc1ncc2c(n1)N(C)c1ccccc1C(=O)N2C [Compound D1] has pIC50 reaching or exceeding 7?
Yes

Is it the case that CCOc1cc(N2CCC(C(=O)O)CC2)ccc1Nc1ncc2c(n1)N(C)c1ccccc1C(=O)N2C has pIC50 reaching or exceeding 7?
No

Is it the case that COc1cc(NC(=O)CCCCCSC(C)=O)ccc1Nc1ncc2c(n1)N(C)c1ccccc1C(=O)N2C has pIC50 reaching or exceeding 7?
Yes

Is it the case that CCOc1cc(N2CCC(O)CC2)ccc1Nc1ncc2c(n1)N(C)c1cccc(F)c1C(=O)N2C has pIC50 reaching or exceeding 7?
No

Is it the case that COc1cc(N2CCC(OC)CC2)ccc1Nc1ncc2c(n1)N(C)c1ccccc1C(=O)N2C has pIC50 reaching or exceeding 7?
Yes

Is it the case that CCOc1cc(N2CCSCC2)ccc1Nc1ncc2c(n1)N(C)c1ccccc1C(=O)N2C has pIC50 reaching or exceeding 7?
No

Is it the case that CCOc1cc(N2CCC(O)CC2)ccc1Nc1ncc2c(n1)N(C)c1ccc(F)cc1C(=O)N2C has pIC50 reaching or exceeding 7?
No

Is it the case that COc1cc(N2CCC(C)(O)CC2)ccc1Nc1ncc2c(n1)N(C)c1ccccc1C(=O)N2C has pIC50 reaching or exceeding 7?
Yes

Is it the case that CCOc1cc(N2CCC(O)CC2)ccc1Nc1ncc2c(n1)N(C)c1ccccc1C(=O)N2CC has pIC50 reaching or exceeding 7?
No

Is it the case that CCOc1cc(N2CCN(C[C@@]3(O)OC[C@@H](O)[C@@H](O)[C@@H]3O)CC2)ccc1Nc1ncc2c(n1)N(C)c1ccccc1C(=O)N2C has pIC50 reaching or exceeding 7?
Yes

====

Give melting point for every item shown.

COc1cc(N2CCCCC2)ccc1Nc1ncc2c(n1)N(C)c1ccccc1C(=O)N2C yielded melting point of 166 to 167 °C

CCOc1cc(N2CCC(C)(F)CC2)ccc1Nc1ncc2c(n1)N(C)c1ccccc1C(=O)N2CC yielded melting point of 189 to 190 °C

COc1cc(N2CCC(OC)CC2)ccc1Nc1ncc2c(n1)N(C)c1ccccc1C(=O)N2C yielded melting point of 179 to 180 °C

CCOc1cc(N2CCC(O)CC2)ccc1Nc1ncc2c(n1)N(C)c1ccccc1C(=O)N2CC yielded melting point of 162 to 163 °C

CCOc1cc(N2CCC(O)CC2)ccc1Nc1ncc2c(n1)N(C)c1cccc(F)c1C(=O)N2C yielded melting point of 174 to 175 °C

CCOc1cc(N2CCC(O)CC2)ccc1Nc1ncc2c(n1)N(C)c1c(C)cccc1C(=O)N2C yielded melting point of 177 to 178 °C

CCOc1cc(N2CCC(O)CC2)ccc1Nc1ncc2c(n1)N(C)c1cc(C)ccc1C(=O)N2C yielded melting point of 171 to 172 °C

COc1cc(NC(=O)CCC(=O)O)ccc1Nc1ncc2c(n1)N(C)c1ccccc1C(=O)N2C [Compound D2] yielded melting point of 237 to 238 °C

====

Give Selectivity (DCLK1 activity/LRRK2 activity) for every item shown.
molecular target: DCLK1 (Homo sapiens); construct: purchased Eurofins (Belgium), contract assay service; assay: In vitro DCLK1 kinase activity assay (Eurofins); format: biochemical; settings: ratio of remaining activities at 1 uM
Please reply with the number alone, leaving off any unit.

CN1C(=O)c2ccccc2N(C)c2nc(Nc3ccc(N4CCC(O)CC4)nc3)ncc21 yielded Selectivity (DCLK1 activity/LRRK2 activity) of 2.14

CCOc1cc(N2CCC(O)CC2)ccc1Nc1ncc2c(n1)N(C)c1ccc(C(F)(F)F)cc1C(=O)N2C yielded Selectivity (DCLK1 activity/LRRK2 activity) of 1.00

CCOc1cc(N2CCC(C)(F)CC2)ccc1Nc1ncc2c(n1)N(C)c1ccccc1C(=O)N2CC yielded Selectivity (DCLK1 activity/LRRK2 activity) of 0.63

COc1cc(N2CCC(C)(C)CC2)ccc1Nc1ncc2c(n1)N(C)c1ccccc1C(=O)N2C yielded Selectivity (DCLK1 activity/LRRK2 activity) of 0.45

CCOc1cc(N2CCC(O)CC2)ccc1Nc1ncc2c(n1)N(C)c1ccccc1C(=O)N2CC yielded Selectivity (DCLK1 activity/LRRK2 activity) of 0.40

CCOc1cc(N2CCC(O)CC2)ccc1Nc1ncc2c(n1)N(C)c1cc(C)ccc1C(=O)N2C yielded Selectivity (DCLK1 activity/LRRK2 activity) of 1.07

COc1cc(N2CCCCC2)ccc1Nc1ncc2c(n1)N(C)c1ccccc1C(=O)N2C yielded Selectivity (DCLK1 activity/LRRK2 activity) of 0.61

CCOc1cc(N2CCC(O)CC2)ccc1Nc1ncc2c(n1)N(C)c1ccc(C)cc1C(=O)N2C yielded Selectivity (DCLK1 activity/LRRK2 activity) of 1.10

CCOc1cc(N2CCC(O)CC2)ccc1Nc1ncc2c(n1)N(C)c1c(C)cccc1C(=O)N2C yielded Selectivity (DCLK1 activity/LRRK2 activity) of 1.03

CCOc1cc(N2CCSCC2)ccc1Nc1ncc2c(n1)N(C)c1ccccc1C(=O)N2C yielded Selectivity (DCLK1 activity/LRRK2 activity) of 0.55

COc1cc(NC(=O)CC(=O)O)ccc1Nc1ncc2c(n1)N(C)c1ccccc1C(=O)N2C [Compound D1] yielded Selectivity (DCLK1 activity/LRRK2 activity) of 0.13

CCOc1cc(N2CCC(C(=O)O)CC2)ccc1Nc1ncc2c(n1)N(C)c1ccccc1C(=O)N2C yielded Selectivity (DCLK1 activity/LRRK2 activity) of 0.59

CCOc1cc(N2CCC(O)CC2)ccc1Nc1ncc2c(n1)N(C)c1cccc(F)c1C(=O)N2C yielded Selectivity (DCLK1 activity/LRRK2 activity) of 0.34

COc1cc(N2CCC(F)CC2)ccc1Nc1ncc2c(n1)N(C)c1ccccc1C(=O)N2C yielded Selectivity (DCLK1 activity/LRRK2 activity) of 0.82

COc1cc(NC(=O)CCC(=O)O)ccc1Nc1ncc2c(n1)N(C)c1ccccc1C(=O)N2C [Compound D2] yielded Selectivity (DCLK1 activity/LRRK2 activity) of 0.20

CCOc1cc(N2CCN(C[C@@]3(O)OC[C@@H](O)[C@@H](O)[C@@H]3O)CC2)ccc1Nc1ncc2c(n1)N(C)c1ccccc1C(=O)N2C yielded Selectivity (DCLK1 activity/LRRK2 activity) of 0.29

====

quantity_kind: melting point

COc1cc(N2CCC(F)(F)CC2)ccc1Nc1ncc2c(n1)N(C)c1ccccc1C(=O)N2C yielded melting point of 171 to 172 °C

CCOc1cc(N2CCSCC2)ccc1Nc1ncc2c(n1)N(C)c1ccccc1C(=O)N2C yielded melting point of 190 to 191 °C

COc1cc(N2CCC(F)CC2)ccc1Nc1ncc2c(n1)N(C)c1ccccc1C(=O)N2C yielded melting point of 160 to 161 °C

CCOc1cc(N2CCN(C[C@@]3(O)OC[C@@H](O)[C@@H](O)[C@@H]3O)CC2)ccc1Nc1ncc2c(n1)N(C)c1ccccc1C(=O)N2C yielded melting point of 126 to 127 °C

====

Biological target: DCLK1 (Homo sapiens)
Construct: purchased Eurofins (Belgium), contract assay service
Sequence (O15075 1-740): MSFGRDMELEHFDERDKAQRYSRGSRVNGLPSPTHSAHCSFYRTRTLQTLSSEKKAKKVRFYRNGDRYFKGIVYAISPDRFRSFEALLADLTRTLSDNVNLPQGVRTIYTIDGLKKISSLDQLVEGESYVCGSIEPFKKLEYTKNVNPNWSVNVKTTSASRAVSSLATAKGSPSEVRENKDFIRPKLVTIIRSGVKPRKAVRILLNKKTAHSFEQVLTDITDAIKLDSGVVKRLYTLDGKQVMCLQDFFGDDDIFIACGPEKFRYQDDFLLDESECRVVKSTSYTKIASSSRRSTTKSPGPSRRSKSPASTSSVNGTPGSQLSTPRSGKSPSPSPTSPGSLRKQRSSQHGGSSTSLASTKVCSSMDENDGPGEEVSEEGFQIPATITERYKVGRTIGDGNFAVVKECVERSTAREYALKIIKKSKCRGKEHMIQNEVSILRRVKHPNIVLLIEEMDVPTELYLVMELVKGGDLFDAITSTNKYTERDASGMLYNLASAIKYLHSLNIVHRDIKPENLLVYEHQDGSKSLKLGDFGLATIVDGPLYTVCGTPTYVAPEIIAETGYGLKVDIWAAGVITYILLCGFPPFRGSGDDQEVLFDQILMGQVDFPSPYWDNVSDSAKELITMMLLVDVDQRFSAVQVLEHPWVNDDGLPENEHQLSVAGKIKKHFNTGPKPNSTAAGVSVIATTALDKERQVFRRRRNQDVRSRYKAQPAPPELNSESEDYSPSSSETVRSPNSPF
Test: In vitro DCLK1 kinase activity assay (Eurofins)
Assay type: biochemical
Settings: remaining kinase activity at 1 uM compound; 100% = no inhibition, 0% = complete inhibition; read-out: DCLK1 activity (%)
Give activity at 1 µM for every item shown.
Entry rule: numbers only, all in %.

CCOc1cc(N2CC[S+]([O-])CC2)ccc1Nc1ncc2c(n1)N(C)c1ccccc1C(=O)N2C yielded activity at 1 µM of 12

COc1cc(NC(=O)CC(=O)O)ccc1Nc1ncc2c(n1)N(C)c1ccccc1C(=O)N2C [Compound D1] yielded activity at 1 µM of 7

CCOc1cc(N2CCC(O)CC2)ccc1Nc1ncc2c(n1)N(C)c1ccccc1C(=O)N2CC yielded activity at 1 µM of 28

CCOc1cc(N2CCC(O)CC2)ccc1Nc1ncc2c(n1)N(C)c1ccc(F)cc1C(=O)N2C yielded activity at 1 µM of 19

CCOc1cc(N2CCC(O)CC2)ccc1Nc1ncc2c(n1)N(C)c1cccc(F)c1C(=O)N2C yielded activity at 1 µM of 17

CCOc1cc(N2CCC(C(=O)O)CC2)ccc1Nc1ncc2c(n1)N(C)c1ccccc1C(=O)N2C yielded activity at 1 µM of 20

CN1C(=O)c2ccccc2N(C)c2nc(NC3CCC(N4CCC(O)CC4)CC3)ncc21 (centres unmarked) yielded activity at 1 µM of 56

COc1cc(N2CCC(C)(C)CC2)ccc1Nc1ncc2c(n1)N(C)c1ccccc1C(=O)N2C yielded activity at 1 µM of 15

COc1cc(NC(=O)CCCCCSC(C)=O)ccc1Nc1ncc2c(n1)N(C)c1ccccc1C(=O)N2C yielded activity at 1 µM of 8

CCOc1cc(N2CCC(O)CC2)ccc1Nc1ncc2c(n1)N(C)c1cccc(C)c1C(=O)N2C yielded activity at 1 µM of 96

CCOc1cc(N2CCC(O)CC2)ccc1Nc1ncc2c(n1)N(C)c1cc(C)ccc1C(=O)N2C yielded activity at 1 µM of 89

CCOc1cc(N2CCC(O)CC2)ccc1Nc1ncc2c(n1)N(C)c1c(C)cccc1C(=O)N2C yielded activity at 1 µM of 103

CN1C(=O)c2ccccc2N(C)c2nc(Nc3ccc(N4CCC(O)CC4)nc3)ncc21 yielded activity at 1 µM of 15

CCOc1cc(N2CCC(O)CC2)ccc1Nc1ncc2c(n1)N(C)c1cc(Cl)ccc1C(=O)N2C yielded activity at 1 µM of 85

COc1cc(N2CCC(F)CC2)ccc1Nc1ncc2c(n1)N(C)c1ccccc1C(=O)N2C yielded activity at 1 µM of 59

CCOc1cc(N2CCC(C)(O)CC2)ccc1Nc1ncc2c(n1)N(C)c1ccccc1C(=O)N2CC yielded activity at 1 µM of 26

COc1cc(N2CCC(C)(O)CC2)ccc1Nc1ncc2c(n1)N(C)c1ccccc1C(=O)N2C yielded activity at 1 µM of 4

CCOc1cc(N2CCC(O)CC2)ccc1Nc1ncc2c(n1)N(C)c1ccc(C)cc1C(=O)N2C yielded activity at 1 µM of 102

CCOc1cc(N2CCC(O)CC2)ccc1Nc1ncc2c(n1)N(C)c1ccc(C(F)(F)F)cc1C(=O)N2C yielded activity at 1 µM of 109

CCOc1cc(N2CCS(=O)(=O)CC2)ccc1Nc1ncc2c(n1)N(C)c1ccccc1C(=O)N2C yielded activity at 1 µM of 9

COc1cc(N2CCC(OC)CC2)ccc1Nc1ncc2c(n1)N(C)c1ccccc1C(=O)N2C yielded activity at 1 µM of 5

CCOc1cc(N2CCC(C)(F)CC2)ccc1Nc1ncc2c(n1)N(C)c1ccccc1C(=O)N2CC yielded activity at 1 µM of 51

COc1cc(NC(=O)CCC(=O)O)ccc1Nc1ncc2c(n1)N(C)c1ccccc1C(=O)N2C [Compound D2] yielded activity at 1 µM of 10

COc1cc(N2CCC(F)(F)CC2)ccc1Nc1ncc2c(n1)N(C)c1ccccc1C(=O)N2C yielded activity at 1 µM of 7

CCOc1cc(N2CCC(O)CC2)ccc1Nc1ncc2c(n1)N(C)c1c(Cl)cccc1C(=O)N2C yielded activity at 1 µM of 25

CCOc1cc(N2CCC(O)CC2)ccc1Nc1ncc2c(n1)N(C)c1ccc(Cl)cc1C(=O)N2C yielded activity at 1 µM of 87

CCOc1cc(N2CCN(C[C@@]3(O)OC[C@@H](O)[C@@H](O)[C@@H]3O)CC2)ccc1Nc1ncc2c(n1)N(C)c1ccccc1C(=O)N2C yielded activity at 1 µM of 6

COc1cc(N2CCCCC2)ccc1Nc1ncc2c(n1)N(C)c1ccccc1C(=O)N2C yielded activity at 1 µM of 11

CCOc1cc(N2CCSCC2)ccc1Nc1ncc2c(n1)N(C)c1ccccc1C(=O)N2C yielded activity at 1 µM of 18
